B1: SMG5 (parent)
chain: FVSIAQSEQESLLQQAQAQFRMAQ

variants of: B1; experiment: protein stability index of a GFP-peptide fusion (GPS, HEK-293T) (PSI 1-6); higher = more stable; conditions: c terminus: a fixed tail appended;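 note: lentivirally expressed fusions sorted by FACS into six bins by GFP to DsRed ratio, PSI derived from sequencing read proportions per bin multiplied by bin number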
PROPERTY_NAME: protein stability index

Q: For `S11P` , what is its reported protein stability index?
A: 2.6

Q: For `S7R` , what is its reported protein stability index?
A: 2.79

Q: For `S11A` , what is its reported protein stability index?
A: 2.4

Q: For `L12V` , what is its reported protein stability index?
A: 2.31

Q: For `S7C` , what is its reported protein stability index?
A: 1.63

Q: For `E8T` , what is its reported protein stability index?
A: 1.84

Q: For `M22E` , what is its reported protein stability index?
A: 2.57

Q: For `E10A` , what is its reported protein stability index?
A: 1.89

Q: For `I4M` , what is its reported protein stability index?
A: 2.61

Q: For `R21F` , what is its reported protein stability index?
A: 1.92

Q: For `Q9Y` , what is its reported protein stability index?
A: 1.21

Q: For `E8L` , what is its reported protein stability index?
A: 2.19

Q: For `S11G` , what is its reported protein stability index?
A: 1.2

Q: For `A5M` , what is its reported protein stability index?
A: 2.58

Q: For `S7Q` , what is its reported protein stability index?
A: 2.5

Q: For `I4V` , what is its reported protein stability index?
A: 2.29

Q: For `A23I` , what is its reported protein stability index?
A: 2.22

Q: For `Q17H` , what is its reported protein stability index?
A: 1.91

Q: For `E8C` , what is its reported protein stability index?
A: 2.04

Q: For `Q6C` , what is its reported protein stability index?
A: 1.44

Q: For `E8H` , what is its reported protein stability index?
A: 2.02

Q: For `Q15H` , what is its reported protein stability index?
A: 2.24
